// provenance: the Human Domainome abundance scans (Beltran et al. 2025)

B1: Steroid hormone receptor ERR2, residues 100 to 176; numbered along this chain, O95718 (parent)
chain: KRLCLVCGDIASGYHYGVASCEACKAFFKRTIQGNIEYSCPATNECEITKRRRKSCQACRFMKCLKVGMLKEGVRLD

Variants of: B1
Test: abundance fitness (aPCA) (normalised: wild type 0, dead -1); higher = more abundant; growth selection in yeast, the domain comes from the species named
Conditions: Homo sapiens
Below, each entry is listed alongside its reported abundance fitness.

{"VARIANT_STRING": "R30H", "abundance fitness": -0.357}
{"VARIANT_STRING": "D9I", "abundance fitness": -0.369}
{"VARIANT_STRING": "M62A", "abundance fitness": 0.013}
{"VARIANT_STRING": "H15W", "abundance fitness": -0.1}
{"VARIANT_STRING": "N44Y", "abundance fitness": -0.278}
{"VARIANT_STRING": "H15D", "abundance fitness": -0.211}
{"VARIANT_STRING": "E22P", "abundance fitness": -0.188}
{"VARIANT_STRING": "Y14M", "abundance fitness": -0.276}
{"VARIANT_STRING": "C40V", "abundance fitness": -0.688}
{"VARIANT_STRING": "C64M", "abundance fitness": -0.273}
{"VARIANT_STRING": "S12L", "abundance fitness": -0.156}
{"VARIANT_STRING": "P41M", "abundance fitness": -0.161}
{"VARIANT_STRING": "F28Q", "abundance fitness": -0.761}
{"VARIANT_STRING": "R51L", "abundance fitness": -0.097}
{"VARIANT_STRING": "F28K", "abundance fitness": -0.694}
{"VARIANT_STRING": "S39A", "abundance fitness": 0.319}
{"VARIANT_STRING": "R60K", "abundance fitness": 0.177}
{"VARIANT_STRING": "K29E", "abundance fitness": 0.217}
{"VARIANT_STRING": "C4Y", "abundance fitness": -0.426}
{"VARIANT_STRING": "C4I", "abundance fitness": -0.956}
{"VARIANT_STRING": "F28A", "abundance fitness": -0.321}
{"VARIANT_STRING": "C46V", "abundance fitness": -0.615}
{"VARIANT_STRING": "T43W", "abundance fitness": -0.021}
{"VARIANT_STRING": "H15I", "abundance fitness": -0.115}
{"VARIANT_STRING": "P41D", "abundance fitness": 0.213}
{"VARIANT_STRING": "A23C", "abundance fitness": 0.094}
{"VARIANT_STRING": "C24D", "abundance fitness": 0.265}
{"VARIANT_STRING": "F28W", "abundance fitness": 0.167}
{"VARIANT_STRING": "K1E", "abundance fitness": -0.128}
{"VARIANT_STRING": "K63C", "abundance fitness": -0.242}
{"VARIANT_STRING": "T43F", "abundance fitness": -0.558}
{"VARIANT_STRING": "R52E", "abundance fitness": 0.136}
{"VARIANT_STRING": "S20L", "abundance fitness": -0.185}
{"VARIANT_STRING": "K1N", "abundance fitness": 0.031}
{"VARIANT_STRING": "T31P", "abundance fitness": -0.951}
{"VARIANT_STRING": "K54G", "abundance fitness": 0.155}
{"VARIANT_STRING": "K25A", "abundance fitness": 0.445}
{"VARIANT_STRING": "C4D", "abundance fitness": -1.1}
{"VARIANT_STRING": "K63G", "abundance fitness": -0.534}
{"VARIANT_STRING": "N35S", "abundance fitness": -0.129}
{"VARIANT_STRING": "A42Q", "abundance fitness": -0.191}
{"VARIANT_STRING": "K63P", "abundance fitness": -0.914}
{"VARIANT_STRING": "K29P", "abundance fitness": -0.841}
{"VARIANT_STRING": "Y16W", "abundance fitness": -0.103}
{"VARIANT_STRING": "E37D", "abundance fitness": -0.423}
{"VARIANT_STRING": "C21T", "abundance fitness": -0.871}
{"VARIANT_STRING": "Y14H", "abundance fitness": -0.034}
{"VARIANT_STRING": "G34N", "abundance fitness": -0.058}
{"VARIANT_STRING": "I10D", "abundance fitness": 0.195}
{"VARIANT_STRING": "C46N", "abundance fitness": -0.735}
{"VARIANT_STRING": "E22I", "abundance fitness": -0.459}
{"VARIANT_STRING": "C59H", "abundance fitness": -0.545}
